MEASUREMENT_TARGET: EPH-A4 (Homo sapiens, UniProt P54764)
Sequence (P54764 20-986, species assumed): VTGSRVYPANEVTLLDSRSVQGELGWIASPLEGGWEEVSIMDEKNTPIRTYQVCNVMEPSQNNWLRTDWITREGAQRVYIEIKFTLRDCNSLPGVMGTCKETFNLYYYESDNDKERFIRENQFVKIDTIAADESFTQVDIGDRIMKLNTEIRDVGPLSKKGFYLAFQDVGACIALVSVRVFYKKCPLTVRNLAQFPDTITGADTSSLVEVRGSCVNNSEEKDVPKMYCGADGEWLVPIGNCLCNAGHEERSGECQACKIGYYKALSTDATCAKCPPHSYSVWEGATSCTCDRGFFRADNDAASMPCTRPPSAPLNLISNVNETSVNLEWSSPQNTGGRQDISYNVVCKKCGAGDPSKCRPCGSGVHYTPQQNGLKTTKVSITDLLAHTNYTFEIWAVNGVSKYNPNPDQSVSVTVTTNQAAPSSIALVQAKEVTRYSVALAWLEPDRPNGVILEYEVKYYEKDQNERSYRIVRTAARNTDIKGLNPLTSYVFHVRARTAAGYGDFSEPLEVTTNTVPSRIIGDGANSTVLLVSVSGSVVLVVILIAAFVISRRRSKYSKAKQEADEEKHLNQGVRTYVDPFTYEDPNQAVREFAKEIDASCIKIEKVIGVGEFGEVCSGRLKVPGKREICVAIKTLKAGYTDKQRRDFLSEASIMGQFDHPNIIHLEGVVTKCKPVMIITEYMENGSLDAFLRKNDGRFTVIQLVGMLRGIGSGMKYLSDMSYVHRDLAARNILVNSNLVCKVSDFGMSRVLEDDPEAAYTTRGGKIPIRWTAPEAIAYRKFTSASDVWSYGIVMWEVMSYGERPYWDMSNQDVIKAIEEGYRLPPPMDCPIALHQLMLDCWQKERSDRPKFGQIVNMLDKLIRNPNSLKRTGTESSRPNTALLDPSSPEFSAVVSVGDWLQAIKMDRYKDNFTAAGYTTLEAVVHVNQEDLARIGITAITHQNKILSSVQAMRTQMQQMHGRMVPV
METHOD_SUMMARY: Kinase profiling EPH-A4
Assay type: biochemical
CONDITION_SET: 100 micromolar inhibitor concentration; 100 is no change
# reported residual kinase activity, EPH-A4; entries follow

| SMILES_TEXT | residual kinase activity, EPH-A4 |
| --- | --- |
| O=C(Nc1nc2ccc(O)cc2s1)c1ccccn1 | 78 |
| CC(=O)Nc1nc2ccccc2s1 | 111 |
| O=C(Nc1nc2ccc(O)cc2s1)c1ccncc1 | 92 |
| O=C(Nc1nc2cc(O)ccc2s1)c1cccnc1 | 92 |
| CC(=O)Nc1nc2cc(C)ccc2s1 | 91 |
| O=C(Nc1nc2ccc(O)cc2s1)c1cccnc1 | 89 |
| O=C(Nc1nc2ccc(O)cc2s1)c1ccccc1 | 87 |
| O=C(Nc1nc2cc(O)ccc2s1)c1ccccn1 | 89 |
| O=C(Nc1nc2cc(O)ccc2s1)c1ccncc1 | 91 |
